FYI, the data here is from patent US11858894B2.

- testDescription: Stability confirmation test (impurity formation during storage under severe conditions, liquid chromatography)
- Type: physicochemical
- conditionSummary: high-humidity exposure condition (60° C., 95% relative humidity), Initial
What Peak area of total impurities was measured for each of the following?
Give the number; % is assumed, so skip it.

Qu. Endpoint output: Peak area of total impurities of CNCc1cn(S(=O)(=O)c2cccc(F)c2)c(-c2ccc(F)cc2F)c1OC.O=C(O)CCC(=O)O [Example 3-1] . Value?
Ans. 0.45

Qu. Okay, and CNCc1cn(S(=O)(=O)c2cccc(F)c2)c(-c2ccc(F)cc2F)c1OC.O=C(O)C(O)C(O)C(=O)O [Example 4-1] ?
Ans. 0.48

Qu. Subsequent entry: CNCc1cn(S(=O)(=O)c2cccc(F)c2)c(-c2ccc(F)cc2F)c1OC.Cl [Example 1-1]
Ans. 0.18

Qu. Query CNCc1cn(S(=O)(=O)c2cccc(F)c2)c(-c2ccc(F)cc2F)c1OC.O=C(O)/C=C/C(=O)O [Example 5-1] next
Ans. 0.62
